target: glucocorticoid receptor (Homo sapiens); construct: expressed in transfected cells; assay: Agonistic mode of action on the glucocorticoid receptor (CHO-Gal4/GR luciferase reporter cell line); assay type: cell-based; details: range class observed in the agonistic assay or the antagonistic assay (CHO-Gal4/GR reporter cells); table does not say which mode applies per example
Sequence (P04150 524-758 limits assumed): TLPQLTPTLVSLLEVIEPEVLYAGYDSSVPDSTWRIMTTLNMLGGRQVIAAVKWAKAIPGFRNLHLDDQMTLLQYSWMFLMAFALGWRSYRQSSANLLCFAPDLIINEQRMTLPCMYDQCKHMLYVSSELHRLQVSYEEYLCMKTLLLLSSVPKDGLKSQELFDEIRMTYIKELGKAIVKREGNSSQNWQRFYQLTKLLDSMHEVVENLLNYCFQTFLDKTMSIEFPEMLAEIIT
Experimental Readout: IC50 or EC50 (agonist or antagonist mode not specified)

INSERT INTO assay_data (compound, result) VALUES
  ('Cc1nnc2n1-c1c(cc(F)c(-c3cc(F)cc4c3cnn4S(C)(=O)=O)c1C(F)(F)F)NC2(C)C [Example 454]', '0.1 to 1 µM'),
  ('Cc1cc2c(c(F)c1-c1cc(F)cc3c1ccn3C)-n1c(C)nnc1C(C)(C)N2 [Example 520]', '0.1 to 1 µM'),
  ('COc1c(-c2cccc3[nH]ncc23)c(F)cc2c1-n1c(C)nnc1C(C)(C)N2 [Example 490]', '0.1 to 1 µM'),
  ('COc1c(-c2cc(C)cc3c2ccn3S(C)(=O)=O)c(F)cc2c1-n1c(C)nnc1C(C)(C)N2 [Example 477]', '0.1 to 1 µM'),
  ('Cc1nnc2n1-c1c(cc(F)c(-c3ccc(F)c4[nH]ccc34)c1C(F)F)NC2(C)C [Example 496]', '< 0.1 µM'),
  ('Cc1nnc2n1-c1c(cc(OC(F)F)c(-c3cccc4c3cnn4C)c1F)NC2(C)C [Example 273]', '1 to 15 µM'),
  ('Cc1nnc2n1-c1c(cc(F)c(-c3cccc4c3ccn4CCNC(=O)OC(C)(C)C)c1F)NC2(C)C [Example 228]', '1 to 15 µM'),
  ('COc1c(-c2cc(F)cc3c2ccn3S(C)(=O)=O)c(F)cc2c1-n1c(C)nnc1C(C)(C)N2 [Example 250]', '< 0.1 µM'),
  ('Cc1c(-c2cccc3c2ccn3C2CC2)c(Cl)cc2c1-n1c(C)nnc1C(C)(C)N2 [Example 533]', '< 0.1 µM'),
  ('Cc1nnc2n1-c1c(cc(F)c(-c3cc(F)cc4c3ccn4C3CC3)c1C(F)(F)F)NC2(C)C [Example 88]', '< 0.1 µM'),
  ('Cc1c(-c2ccc(Cl)c3c2ccn3S(C)(=O)=O)c(F)cc2c1-n1c(C)nnc1C(C)(C)N2 [Example 525]', '0.1 to 1 µM'),
  ('Cc1n[nH]c2c(-c3c(F)cc4c(c3F)-n3c(C)nnc3C(C)(C)N4)cccc12 [Example 354]', '0.1 to 1 µM'),
  ('CCc1nnc2n1-c1c(cc(F)c(-c3cccc4c3ccn4S(C)(=O)=O)c1C)NC2(C)C [Example 247]', '1 to 15 µM'),
  ('Cc1c(-c2cc(F)cc3c(C)c[nH]c23)ccc2c1-n1c(C)nnc1C(C)(C)N2 [Example 452]', '< 0.1 µM'),
  ('COCCn1ccc2c(-c3c(F)cc4c(c3C(F)F)-n3c(C)nnc3C(C)(C)N4)cc(F)cc21 [Example 402]', '0.1 to 1 µM'),
  ('Cc1c(-c2cc(F)cc3c(C)c[nH]c23)c(F)cc2c1-n1c(C)nnc1C(C)(C)N2 [Example 31]', '< 0.1 µM');
